I'd be grateful if you could share measured composite z-score for these entries.
target: Torsin-1A (Homo sapiens) (UniProt O14656); assay: torsin A binders from cell lysate, primary screen, small-molecule microarray, wild-type, 635/667 nm (AID 1149); conditions: COS7 hTOR1A-WT lysate, 635 nm fluorescence, higher = more signal
Sequence (O14656 whole entry, looked up): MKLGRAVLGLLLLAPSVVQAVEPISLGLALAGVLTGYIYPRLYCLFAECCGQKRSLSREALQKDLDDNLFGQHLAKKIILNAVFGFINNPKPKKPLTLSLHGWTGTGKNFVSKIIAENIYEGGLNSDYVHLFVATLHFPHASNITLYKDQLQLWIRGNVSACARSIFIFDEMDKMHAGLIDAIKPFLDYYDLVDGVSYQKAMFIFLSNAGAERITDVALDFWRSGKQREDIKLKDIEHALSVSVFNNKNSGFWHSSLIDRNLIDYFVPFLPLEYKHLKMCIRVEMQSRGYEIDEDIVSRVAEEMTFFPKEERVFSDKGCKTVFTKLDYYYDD
One number for each entry.

// below: answered compounds
[
  {
    "compound": "CCOC(=O)[C@H](Cc1ccccc1)NC(=O)CCC1CC(OC(=O)NCc2cccc3ccccc23)CC2(CCCC(COC(=O)NCCc3ccc(Cl)cc3)O2)O1 (stereo partly specified)",
    "measurement-kind": "composite z-score",
    "observed-result": -0.162
  },
  {
    "compound": "COC(=O)C1=C(C)N(Cc2ccccc2)C2=C3C(=O)OCC[C@@H]3[C@@](O)(C(=O)OC)C(=O)N2[C@@H]1c1ccccc1",
    "measurement-kind": "composite z-score",
    "observed-result": -0.154
  },
  {
    "compound": "O=C1CCCC=C1C(O)C1CCCCC1 (stereo unspecified)",
    "measurement-kind": "composite z-score",
    "observed-result": -0.19
  }
]

Below is a list of compounds. For each, state its recorded composite z-score.
1. COc1ccc(COC(=O)NN=C2C[C@@H](O)[C@@H](O)[C@@H]3[C@@H]4C(=O)N([C@@H](C)c5ccccc5)C(=O)[C@@H]4CC[C@@H]23)cc1
2. COc1ccc(OC[C@@H]2CC3[C@@H](c4ccc(Br)cc4)[C@H](C)CC[C@H]3C(=O)O2)cc1 (stereo partly specified)

Solution:
0.699
0.327

Below is a list of compounds. For each, state its recorded composite z-score.
1. C[C@H]1CC[C@H]2C(=O)O[C@H](CO)CN2[C@@H]1c1ccc(Br)cc1
2. O=C1[C@H]2[C@H]3[C@H](O)[C@H](O)CC(=NOCc4ccccc4)[C@@H]3CC[C@H]2C(=O)N1c1cccc(Oc2ccccc2)c1
3. CCN1C(=O)[C@H]2[C@H]3[C@H](O)[C@H](O)CC(=NNC(=O)OCc4ccccc4)[C@H]3CC[C@H]2C1=O
4. COC(=O)CC=C[C@@H](C)[C@@H](C=NOC[C@@H](O)[C@H]1O[C@@H]2OC(C)(C)O[C@@H]2[C@H]1O)OC
5. COC(=O)CC=C[C@@H](C)[C@@H](C=NOC(C)CN1CCCc2nc(C)c(C)cc21)NS(=O)(=O)c1ccc(C)cc1 (stereo partly specified)
6. CCN1C(=O)[C@H]2[C@H]3[C@H](O)[C@H](O)CC(=NOC[C@@H](O)[C@H]4O[C@@H]5OC(C)(C)O[C@@H]5[C@H]4O)[C@@H]3CC[C@H]2C1=O

Solution:
[0.345, 0.186, -0.211, -0.104, 0.308, 0.382]

Below is a list of compounds. For each, state its recorded composite z-score.
1. COC(=O)[C@H](C)NC(=O)CCC1CC(OC(=O)NCc2cccc3ccccc23)CC2(CCCC(COC(=O)NCc3cccc(C(F)(F)F)c3)O2)O1 (stereo partly specified)
2. CC(=O)OC[C@H]1O[C@@H](ON=C(C)C)[C@H](OC(C)=O)[C@@H](OC(C)=O)[C@@H]1OC(C)=O

Solution:
0.241
0.456

Below is a list of compounds. For each, state its recorded composite z-score.
1. CC(CCN1CCc2nc(-c3ccccc3)c(-c3ccccc3)cc2C1)=NO[C@H](C)c1cn([C@H](CO)Cc2ccccc2)nn1
2. C[C@@H]1CC[C@H]2C(=O)OC(Cc3ccccc3)CN2[C@H]1c1ccc(Br)cc1 (stereo partly specified)
3. CC(C)=NOC(C)CN1CCCc2nc(C)c(C)cc21 (stereo unspecified)

Solution:
1: 0.824; 2: 0.172; 3: 0.111

The reported measurements were obtained from PubChem BioAssay.
